Biological target: T1, Human CD27 ECD truncated (ECD 1-121, cleavage site, His6) (human)
T1 construct: also called human CD27 ECD with His Tag; CD27-His
T1 chain: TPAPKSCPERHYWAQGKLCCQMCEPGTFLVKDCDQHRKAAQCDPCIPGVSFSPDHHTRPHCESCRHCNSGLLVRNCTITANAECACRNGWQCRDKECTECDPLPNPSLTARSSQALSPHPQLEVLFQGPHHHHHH
Assay: ProteOn SPR, culture supernatants
So I've got a bunch of binders here, and I need their pKd values.
Answers are plain numbers, as −log10 of the molar value.

Recorded pKd, per entry:
M158 (antibody, human IgG4, V domains shown, also called H196,L220) VH: QVQLVQSGAEVKKPGASVKVSCKASGYAFSSSWMNWVRQAPGQGLEWMGRIYSGDGDTNYNGKFKGRVTMTRDTSTSTVYMELSSLRSEDTAVYYCARSDYYGDYGFAYWGQGTLVTVSS VL: DIQMTQSPSSLSASVGDRVTITCKASQSVDYAGDSYMNWYQQKPGKAPKLLIYAASNLESGVPSRFSGSGSGTDFTLTISSLQPEDFATYYCQQSNEDPYTFGQGTKVEIK = 9.44
M159 (antibody, human IgG4, V domains shown, also called H25,L220; parental mAb) VH: QVQLVQSGAEVKKPGASVKVSCKASGYAFSSSWMNWVRQAPGQGLEWMGRIYPGDGDTNYNGKFKGRVTMTRDTSTSTVYMELSSLRSEDTAVYYCARSDYYGDYGFAYWGQGTLVTVSS VL: DIQMTQSPSSLSASVGDRVTITCKASQSVDYAGDSYMNWYQQKPGKAPKLLIYAASNLESGVPSRFSGSGSGTDFTLTISSLQPEDFATYYCQQSNEDPYTFGQGTKVEIK = 8.65

Here is the next item to consider.
Enquiry: Give a short answer stating reported pKd for M160 (antibody, human IgG4, V domains shown, also called H196,L219) VH: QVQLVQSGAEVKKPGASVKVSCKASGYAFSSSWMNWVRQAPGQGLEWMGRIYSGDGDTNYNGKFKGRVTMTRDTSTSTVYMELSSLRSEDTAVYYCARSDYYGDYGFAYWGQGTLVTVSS VL: DIQMTQSPSSLSASVGDRVTITCKASQSVDYAGDSFMNWYQQKPGKAPKLLIYAASNLESGVPSRFSGSGSGTDFTLTISSLQPEDFATYYCQQSNEDPYTFGQGTKVEIK .
Return: 9.92

src = patent US20130243795A1
